assay summary: dynamic solubility in water and three biological solvents
Format: physicochemical
test parameters: 37 °C, pH 5, fessif, thermodynamic from solid
property: solubility at 4 h (µg/mL)
Answers are plain numbers, in µg/mL.

Value lookup for solubility at 4 h; key = Cc1cnc(-c2cc(N3CCc4nc(N5CCC(O)CC5)ncc4[C@H]3C)ncc2Cl)c(C)c1 [compound of formula (I)]
2900

###

assay summary: in vivo
test parameters: rat, po, 10 mg/kg
property: Cmax (ng/mL)
One number for each entry, in ng/mL.

Value lookup for Cmax; key = Cc1cnc(-c2cc(N3CCc4nc(N5CCC(O)CC5)ncc4[C@H]3C)ncc2Cl)c(C)c1 [Fumarate crystal form F]
2850

###

assay summary: in vivo
test parameters: male, C57, mouse, plasma, po, 10 mg/kg
property: Cmax (ng/mL)
Numbers only, in ng/mL.

Value lookup for Cmax; key = CS(=O)(=O)c1ccc(C(=O)Nc2ccc(Cl)c(-c3ccccn3)c2)c(Cl)c1 [GDC-0449, reference compound]
1270

###

assay summary: dynamic solubility in water and three biological solvents
Assay type: physicochemical
test parameters: 37 °C, pH 5, fessif, thermodynamic from solid
property: solubility at 1 h (µg/mL)
Answers are plain numbers, in µg/mL.

Value lookup for solubility at 1 h; key = Cc1cnc(-c2cc(N3CCc4nc(N5CCC(O)CC5)ncc4[C@H]3C)ncc2Cl)c(C)c1 [compound of formula (I)]
3000

###

assay summary: in vivo
test parameters: mouse, in vivo, po, 10 mg/kg
property: Tmax (min)
Numbers only, in min.

Value lookup for Tmax; key = Cc1cnc(-c2cc(N3CCc4nc(N5CCC(O)CC5)ncc4[C@H]3C)ncc2Cl)c(C)c1 [Fumarate crystal form F]
15

###

assay summary: dynamic solubility in water and three biological solvents
Type: physicochemical
test parameters: 37 °C, pH 6.5, fassif, thermodynamic from solid
property: solubility at 2 h (µg/mL)
Give bare numbers, in µg/mL.

Value lookup for solubility at 2 h; key = Cc1cnc(-c2cc(N3CCc4nc(N5CCC(O)CC5)ncc4[C@H]3C)ncc2Cl)c(C)c1 [compound of formula (I)]
200

###

assay summary: dynamic solubility in water and three biological solvents
Type: physicochemical
test parameters: 37 °C, water, thermodynamic from solid
property: solubility at 1 h (µg/mL)
Answers are plain numbers, in µg/mL.

Value lookup for solubility at 1 h; key = Cc1cnc(-c2cc(N3CCc4nc(N5CCC(O)CC5)ncc4[C@H]3C)ncc2Cl)c(C)c1 [compound of formula (I)]
13

###

assay summary: dynamic solubility in water and three biological solvents
Type: physicochemical
test parameters: 37 °C, water, thermodynamic from solid
property: solubility at 4 h (µg/mL)
Numbers only, in µg/mL.

Value lookup for solubility at 4 h; key = Cc1cnc(-c2cc(N3CCc4nc(N5CCC(O)CC5)ncc4[C@H]3C)ncc2Cl)c(C)c1
18

###

assay summary: in vivo
test parameters: male, C57, mouse, plasma, po, 10 mg/kg
property: MRT (h)
Numbers only, in h.

Value lookup for MRT; key = CS(=O)(=O)c1ccc(C(=O)Nc2ccc(Cl)c(-c3ccccn3)c2)c(Cl)c1 [GDC-0449, reference compound]
8.33

###

assay summary: dynamic solubility in water and three biological solvents
Type: physicochemical
test parameters: 37 °C, water, thermodynamic from solid
property: solubility at 24 h (µg/mL)
One number for each entry, in µg/mL.

Value lookup for solubility at 24 h; key = Cc1cnc(-c2cc(N3CCc4nc(N5CCC(O)CC5)ncc4[C@H]3C)ncc2Cl)c(C)c1 [compound of formula (I)]
30

###

assay summary: dynamic solubility in water and three biological solvents
Format: physicochemical
test parameters: 37 °C, pH 1.8, simulated gastric fluid, thermodynamic from solid
property: solubility at 4 h (µg/mL)
Numbers only, in µg/mL.

Value lookup for solubility at 4 h; key = Cc1cnc(-c2cc(N3CCc4nc(N5CCC(O)CC5)ncc4[C@H]3C)ncc2Cl)c(C)c1
4000

###

assay summary: in vivo
test parameters: mouse, in vivo, po, 10 mg/kg
property: AUC(0-t) (ng·h/mL)
Answers are plain numbers, in ng·h/mL.

Value lookup for AUC(0-t); key = Cc1cnc(-c2cc(N3CCc4nc(N5CCC(O)CC5)ncc4[C@H]3C)ncc2Cl)c(C)c1 [Fumarate crystal form F]
7500

###

assay summary: dynamic solubility in water and three biological solvents
Type: physicochemical
test parameters: 37 °C, water, thermodynamic from solid
Method: Finally, the volume is fixed with purified water. 0.17 g of sodium dihydrogen phosphate (NaH2PO4, anhydrous), 0.021 g of sodium hydroxide and 0.31 g of sodium chloride were weighed into a 50 mL volumetric flask respectively, about 48 mL of purified water was added for dissolution, the pH was adjusted to exactly 6.5 with 1M hydrochloric acid or 1M sodium hydroxide, and the volume was fixed with purified water. […]
property: solubility at 2 h

Value lookup for solubility at 2 h; key = Cc1cnc(-c2cc(N3CCc4nc(N5CCC(O)CC5)ncc4[C@H]3C)ncc2Cl)c(C)c1
16 µg/mL

###

assay summary: in vivo
test parameters: mouse, in vivo, po, 10 mg/kg
property: MRT

Value lookup for MRT; key = Cc1cnc(-c2cc(N3CCc4nc(N5CCC(O)CC5)ncc4[C@H]3C)ncc2Cl)c(C)c1 [Fumarate crystal form F]
15.6 h

###

assay summary: dynamic solubility in water and three biological solvents
Format: physicochemical
test parameters: 37 °C, pH 6.5, fassif, thermodynamic from solid
property: solubility at 1 h (µg/mL)
Numbers only, in µg/mL.

Value lookup for solubility at 1 h; key = Cc1cnc(-c2cc(N3CCc4nc(N5CCC(O)CC5)ncc4[C@H]3C)ncc2Cl)c(C)c1
210

###

assay summary: dynamic solubility in water and three biological solvents
Type: physicochemical
test parameters: 37 °C, pH 1.8, simulated gastric fluid, thermodynamic from solid
Protocol: Finally, the volume is fixed with purified water. 0.17 g of sodium dihydrogen phosphate (NaH2PO4, anhydrous), 0.021 g of sodium hydroxide and 0.31 g of sodium chloride were weighed into a 50 mL volumetric flask respectively, about 48 mL of purified water was added for dissolution, the pH was adjusted to exactly 6.5 with 1M hydrochloric acid or 1M sodium hydroxide, and the volume was fixed with purified water. […]
property: solubility at 24 h

Value lookup for solubility at 24 h; key = Cc1cnc(-c2cc(N3CCc4nc(N5CCC(O)CC5)ncc4[C@H]3C)ncc2Cl)c(C)c1 [compound of formula (I)]
3900 µg/mL

###

assay summary: dynamic solubility in water and three biological solvents
Type: physicochemical
test parameters: 37 °C, pH 1.8, simulated gastric fluid, thermodynamic from solid
property: solubility at 2 h (mg/mL)
One number for each entry, in mg/mL.

Value lookup for solubility at 2 h; key = Cc1cnc(-c2cc(N3CCc4nc(N5CCC(O)CC5)ncc4[C@H]3C)ncc2Cl)c(C)c1 [compound of formula (I)]
3.9

###

assay summary: in vivo
test parameters: mouse, in vivo, po, 10 mg/kg
property: half-life (min)
Numbers only, in min.

Value lookup for half-life; key = Cc1cnc(-c2cc(N3CCc4nc(N5CCC(O)CC5)ncc4[C@H]3C)ncc2Cl)c(C)c1 [Fumarate crystal form F]
742

###

assay summary: dynamic solubility in water and three biological solvents
Type: physicochemical
test parameters: 37 °C, pH 1.8, simulated gastric fluid, thermodynamic from solid
property: solubility at 1 h (µg/mL)
One number for each entry, in µg/mL.

Value lookup for solubility at 1 h; key = Cc1cnc(-c2cc(N3CCc4nc(N5CCC(O)CC5)ncc4[C@H]3C)ncc2Cl)c(C)c1 [compound of formula (I)]
4100
